These data points were gathered from ChEMBL document CHEMBL1139611.

Catalogue of molecules with associated pKi
target: Delta-type opioid receptor (Rattus norvegicus); experiment: Inhibition of [3H]DPDPE binding to Opioid receptor delta 1 of rat brain membrane
pKi: −log10 of the molar value.

chem smiles	system under test	limit operator	pKi
NC(=O)[C@H](Cc1ccccc1)NC(=O)[C@H](Cc1ccccc1)NC(=O)[C@@H](Cc1ccccc1)NO[C@@H](N)Cc1ccc(O)cc1	Delta-type opioid receptor (Rattus norvegicus)	<	5.00
NC(=O)[C@H](Cc1ccccc1)NC(=O)[C@H](Cc1ccccc1)NO[C@@H]1CCCN1C(=O)[C@@H](N)Cc1ccc(O)cc1	Delta-type opioid receptor (Rattus norvegicus)	<	5.00
NC(=O)[C@H](Cc1ccccc1)NC(=O)[C@@H](Cc1ccccc1)NO[C@@H]1CCCN1C(=O)[C@@H](N)Cc1ccc(O)cc1	Delta-type opioid receptor (Rattus norvegicus)	<	5.00
NC(=O)[C@H](Cc1ccccc1)NC(=O)[C@H](Cc1ccccc1)NC(=O)[C@H](Cc1ccccc1)NO[C@@H](N)Cc1ccc(O)cc1	Delta-type opioid receptor (Rattus norvegicus)	<	5.00
NC(=O)[C@H](Cc1ccccc1)NC(=O)[C@H](Cc1ccccc1)O/N=C/[C@@H]1CCCN1C(=O)[C@@H](N)Cc1ccc(O)cc1	Delta-type opioid receptor (Rattus norvegicus)	=	4.70
NC(=O)[C@H](Cc1ccccc1)NC(=O)[C@H](Cc1ccccc1)NC(=O)[C@@H]1CCN(C(=O)[C@@H](N)Cc2ccc(O)cc2)C1	Delta-type opioid receptor (Rattus norvegicus)	=	5.08
NC(=O)[C@H](Cc1ccccc1)NC(=O)[C@@H](Cc1ccccc1)O/N=C/[C@@H]1CCCN1C(=O)[C@@H](N)Cc1ccc(O)cc1	Delta-type opioid receptor (Rattus norvegicus)	=	4.43

---

target: Mu-type opioid receptor (Rattus norvegicus); test: Inhibition of [3H]DAMGO binding to Opioid receptor mu 1 of rat brain membrane
Quick rule for you: Ki under 600 nM gets satisfied, anything else gets not satisfied.

chem smiles	system under test	assigned class
NC(=O)[C@H](Cc1ccccc1)NC(=O)[C@H](Cc1ccccc1)NO[C@@H]1CCCN1C(=O)[C@@H](N)Cc1ccc(O)cc1	Mu-type opioid receptor (Rattus norvegicus)	satisfied
NC(=O)[C@H](Cc1ccccc1)NC(=O)[C@H](Cc1ccccc1)O/N=C/[C@@H]1CCCN1C(=O)[C@@H](N)Cc1ccc(O)cc1	Mu-type opioid receptor (Rattus norvegicus)	not satisfied
NC(=O)[C@H](Cc1ccccc1)NC(=O)[C@H](Cc1ccccc1)NC(=O)[C@@H](Cc1ccccc1)NO[C@@H](N)Cc1ccc(O)cc1	Mu-type opioid receptor (Rattus norvegicus)	not satisfied
NC(=O)[C@H](Cc1ccccc1)NC(=O)[C@H](Cc1ccccc1)NC(=O)[C@@H]1CCN(C(=O)[C@@H](N)Cc2ccc(O)cc2)C1	Mu-type opioid receptor (Rattus norvegicus)	satisfied
NC(=O)[C@H](Cc1ccccc1)NC(=O)[C@@H](Cc1ccccc1)O/N=C/[C@@H]1CCCN1C(=O)[C@@H](N)Cc1ccc(O)cc1	Mu-type opioid receptor (Rattus norvegicus)	not satisfied

---

biological target: Opioid receptors; mu & delta (Rattus norvegicus) (UniProt P33533+P33535); test: Selectivity ratio of Opioid receptor delta 1 to Opioid receptor mu 1; format: protein assay
Sequence (P33533 whole entry, looked up): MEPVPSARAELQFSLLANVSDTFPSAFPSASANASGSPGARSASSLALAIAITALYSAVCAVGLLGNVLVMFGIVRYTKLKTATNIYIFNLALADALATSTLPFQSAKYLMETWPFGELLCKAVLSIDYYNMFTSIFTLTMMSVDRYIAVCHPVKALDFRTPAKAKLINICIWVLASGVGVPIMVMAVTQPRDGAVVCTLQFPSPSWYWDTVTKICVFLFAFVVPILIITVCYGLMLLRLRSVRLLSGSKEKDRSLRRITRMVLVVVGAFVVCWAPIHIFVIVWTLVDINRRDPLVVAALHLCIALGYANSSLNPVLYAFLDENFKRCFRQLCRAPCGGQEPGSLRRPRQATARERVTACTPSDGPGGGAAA
Sequence (P33535 whole entry, looked up): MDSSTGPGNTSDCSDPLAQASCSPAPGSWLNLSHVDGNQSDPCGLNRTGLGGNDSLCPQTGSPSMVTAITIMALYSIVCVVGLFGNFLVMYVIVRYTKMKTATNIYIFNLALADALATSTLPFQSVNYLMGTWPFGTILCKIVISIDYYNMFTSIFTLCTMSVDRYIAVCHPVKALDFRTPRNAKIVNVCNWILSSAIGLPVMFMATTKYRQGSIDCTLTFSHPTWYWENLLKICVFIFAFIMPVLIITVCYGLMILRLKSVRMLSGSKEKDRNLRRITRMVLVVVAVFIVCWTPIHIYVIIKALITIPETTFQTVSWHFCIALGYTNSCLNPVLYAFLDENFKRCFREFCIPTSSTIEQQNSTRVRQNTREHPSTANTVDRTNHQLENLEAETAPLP
Catalogue of molecules with associated Selectivity

chem smiles	limit operator	Selectivity
NC(=O)[C@H](Cc1ccccc1)NC(=O)[C@@H](Cc1ccccc1)NO[C@@H]1CCCN1C(=O)[C@@H](N)Cc1ccc(O)cc1	>	17
NC(=O)[C@H](Cc1ccccc1)NC(=O)[C@@H](Cc1ccccc1)O/N=C/[C@@H]1CCCN1C(=O)[C@@H](N)Cc1ccc(O)cc1	=	9
NC(=O)[C@H](Cc1ccccc1)NC(=O)[C@H](Cc1ccccc1)NO[C@@H]1CCCN1C(=O)[C@@H](N)Cc1ccc(O)cc1	>	23
NC(=O)[C@H](Cc1ccccc1)NC(=O)[C@H](Cc1ccccc1)O/N=C/[C@@H]1CCCN1C(=O)[C@@H](N)Cc1ccc(O)cc1	=	4.1
NC(=O)[C@H](Cc1ccccc1)NC(=O)[C@H](Cc1ccccc1)NC(=O)[C@@H]1CCN(C(=O)[C@@H](N)Cc2ccc(O)cc2)C1	=	1020
